meta.source: patent US8410310B2

target: Thrombin (Homo sapiens, UniProt P00734); assay: Determination of inhibition constants for thrombin; type: biochemical
pKi: −log10 of the molar value.

compound	targetDesc	pKi
N=C(N)c1ccc(CNC(=O)[C@H](CCc2ccc(CN)cc2)NC(=O)[C@@H](CCCc2ccccc2)NS(=O)(=O)Cc2ccccc2)cc1 [compound 31]	Thrombin (Homo sapiens, UniProt P00734)	> 7.00
COC(=O)c1cccc(CS(=O)(=O)N[C@H](COC(C)(C)C)C(=O)N[C@@H](Cc2cccc(CN)c2)C(=O)NCc2ccc(C(=N)N)cc2)c1 [compound 66]	Thrombin (Homo sapiens, UniProt P00734)	< 6.00
N#Cc1cccc(C[C@@H](NS(=O)(=O)Cc2ccccc2)C(=O)N[C@@H](CCc2ccncc2)C(=O)NCc2ccc(C(=N)N)cc2)c1 [compound 45]	Thrombin (Homo sapiens, UniProt P00734)	> 7.00
CC(C)(C)OC[C@@H](NS(=O)(=O)Cc1cccc(C(=O)O)c1)C(=O)N[C@@H](Cc1cccc(CN)c1)C(=O)NCc1ccc(C(=N)N)cc1 [compound 67]	Thrombin (Homo sapiens, UniProt P00734)	< 6.00
N=C(N)c1ccc(CNC(=O)[C@H](Cc2ccc(CN)cc2)NC(=O)[C@@H](CCCc2ccccc2)NS(=O)(=O)Cc2cccc(C(=O)O)c2)cc1 [compound 30]	Thrombin (Homo sapiens, UniProt P00734)	< 6.00
N=C(N)c1ccc(CNC(=O)[C@H](Cc2cccc(CN)c2)NC(=O)[C@@H](CO)NS(=O)(=O)Cc2ccc(C(=O)O)cc2)cc1 [compound 70]	Thrombin (Homo sapiens, UniProt P00734)	< 6.00

---

molecular target: Thrombin (Homo sapiens); assay: Determination of inhibition constants for thrombin; format: biochemical
pKi: −log10 of the molar value.
valueType: pKi

entrySmiles	targetDesc	valueType	result
N=C(N)c1ccc(CNC(=O)[C@H](CCc2ccncc2)NC(=O)[C@@H](CCc2ccc(O)cc2)NS(=O)(=O)Cc2ccccc2)cc1	Thrombin (Homo sapiens)	pKi	> 8.00
N=C(N)c1ccc(CNC(=O)[C@H](Cc2cccc(CN)c2)NC(=O)[C@@H](CCCC2CCCCC2)NS(=O)(=O)Cc2ccccc2)cc1	Thrombin (Homo sapiens)	pKi	> 6.00
N=C(N)c1ccc(CNC(=O)[C@H](CCc2ccccc2)NC(=O)[C@@H](CCc2ccc(O)cc2)NS(=O)(=O)Cc2ccccc2)cc1	Thrombin (Homo sapiens)	pKi	> 6.00
N=C(N)c1ccc(CNC(=O)[C@H](Cc2c[nH]cn2)NC(=O)[C@@H](CCCc2ccccc2)NS(=O)(=O)Cc2cccc(C(=O)O)c2)cc1	Thrombin (Homo sapiens)	pKi	< 6.00
N=C(N)c1ccc(CNC(=O)[C@H](CCc2ccncc2)NC(=O)[C@@H](CC2CCCCC2)NS(=O)(=O)Cc2ccccc2)cc1	Thrombin (Homo sapiens)	pKi	> 8.00
N=C(N)c1ccc(CNC(=O)[C@H](Cc2cccc(CN)c2)NC(=O)[C@@H](CCCc2ccccc2)NS(=O)(=O)Cc2ccc(C(=O)O)cc2)cc1	Thrombin (Homo sapiens)	pKi	> 6.00

---

target: Thrombin (Homo sapiens, UniProt P00734); assay: Determination of inhibition constants for thrombin; format: biochemical

compound	Ki
N=C(N)c1ccc(CNC(=O)[C@H](CCc2ccncc2)NC(=O)[C@@H](CCc2ccccc2)NS(=O)(=O)Cc2ccccc2)cc1 [compound 44]	< 100 nM
N=C(N)c1ccc(CNC(=O)[C@H](Cc2cccc(CN)c2)NC(=O)[C@H](NS(=O)(=O)Cc2cccc(C(=O)O)c2)C(c2ccccc2)c2ccccc2)cc1 [compound 23]	< 100 nM
N=C(N)c1ccc(CNC(=O)[C@H](CCc2ccccc2)NC(=O)[C@@H](CCCc2ccccc2)NS(=O)(=O)Cc2ccc(C(=O)O)cc2)cc1 [compound 35]	< 1000 nM
N=C(N)c1ccc(CNC(=O)[C@H](CCc2ccccc2)NC(=O)[C@@H](CCCc2cc[n+]([O-])cc2)NS(=O)(=O)Cc2cccc(C(=O)O)c2)cc1 [compound 54]	> 1000 nM
N=C(N)c1ccc(CNC(=O)[C@H](Cc2cccc(CN)c2)NC(=O)[C@@H](CCCCN)NS(=O)(=O)Cc2ccccc2)cc1 [compound 59]	> 1000 nM
N=C(N)c1ccc(CNC(=O)[C@H](CCc2ccc(CN)cc2)NC(=O)[C@@H](CC2CCCCC2)NS(=O)(=O)Cc2ccccc2)cc1 [compound 37]	< 100 nM
